Experiment: chemical genetic growth profiling, strain panel (AID 1159580);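 also: tested at 20 µM; growth read once vehicle control cultures reached saturation at 30 °C; 1 = growth at the plate median or of vehicle wells; lower values mean less growth of the strain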
Details: S. cerevisiae deletion strains, growth OD, locus YJL134W, strain LCB3, active compounds read low
In all, about 5,500 compounds went through this assay and about 2,000 (36%) were called active. Roughly 18% stayed inconclusive and do not appear here. Some of the results follow.
Entries whose normalized growth is below 1 take YES; entries at or above 1 take NO.

Would you please look over these solved cases?
>  <Structure>
CN(C)CCC[C@@]1(c2ccc(F)cc2)OCc2cc(C#N)ccc21

>  <Class label>
NO

$$$$
>  <Structure>
O=c1c(O)cccc2cc(O)c(O)c(O)c12

>  <Class label>
YES

$$$$
>  <Structure>
NC(=NCCCCCCN=C(N)N=C(N)Nc1ccc(Cl)cc1)N=C(N)Nc1ccc(Cl)cc1

>  <Class label>
YES

$$$$

Let us examine a further case.
Prompt: Given the entry Oc1cccc2cccnc12 , would its reported normalized growth be below 1?
Response: YES

----------
Assay: chemical genetic growth profiling, strain panel (AID 1159580)
Settings: S. cerevisiae deletion strains, growth OD, locus YPL256C, strain CLN2, active compounds read low
Out of some 5,500 compounds screened, about 2,000 (36%) were called active. About 18% were inconclusive and are not listed. Some of the results follow.
Readout kind: normalized growth
# answer = number (no unit)

Some compounds with known normalized growth results, for comparison:
>  <Compound>
NS(=O)(=O)c1cc2c(cc1Cl)NCNS2(=O)=O

>  <Value measured>
0.986

$$$$
>  <Compound>
CC(C)OC(=O)Nc1cccc(Cl)c1

>  <Value measured>
0.992

$$$$
>  <Compound>
O=C(O)c1cccnc1C(=O)O

>  <Value measured>
1

$$$$
>  <Compound>
CN1CCCCC1c1ccc(-c2cccnc2)nc1 (stereo not given)

>  <Value measured>
0.977

$$$$

Let us examine a further case.
For this compound ( Oc1cc2c(cc1O)C(c1ccccc1)CNCC2 (stereo not given) ), measured normalized growth is 0.984

----------
Experiment: chemical genetic growth profiling, strain panel (AID 1159580)
Conditions: S. cerevisiae deletion strains, growth OD, locus YML124C, strain tub3, active compounds read low
Among all 5,500 compounds or so, about 2,000 (36%) were called active. Not shown: some 18% with an inconclusive outcome. Some of the results follow.
# normalized growth annotations
# answer = number (no unit)

>  <Compound>
CC(=O)OC[C@@]1(O)C[C@@]23CCC4c5ccoc5CC[C@]4(C)C2CC[C@@H]1C3 (some centres undefined)

>  <normalized growth>
0.98

$$$$
>  <Compound>
O=C(c1ccccc1)c1ccc2n1CCC2C(=O)O (centres undefined)

>  <normalized growth>
0.982

$$$$
>  <Compound>
Cn1c(=O)[nH]c2ncn(C)c2c1=O

>  <normalized growth>
0.993

$$$$
>  <Compound>
O=C(/C=C/c1ccc(O)cc1)c1ccc(O)cc1O

>  <normalized growth>
0.964

$$$$
>  <Compound>
CC(C)N1C(=O)c2ccccc2NS1(=O)=O

>  <normalized growth>
1

$$$$
>  <Compound>
COc1ccc(/C=C/c2cc(O)cc(O[C@@H]3O[C@H](CO)[C@@H](O)[C@H](O)[C@H]3O)c2)cc1

>  <normalized growth>
0.987

$$$$

For this compound ( COc1cc(Cc2cnc(N)nc2N)cc(OC)c1OC ), measured normalized growth is 0.991

For this compound ( CC(C)Cn1c(=O)n(C)c(=O)c2[nH]cnc21 ), measured normalized growth is 0.981

For this compound ( CN1CCCCC1c1ccc(-c2cccnc2)nc1 (centres undefined) ), measured normalized growth is 0.998

----------
Assay: chemical genetic growth profiling, strain panel (AID 1159580);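 also: tested at 20 µM; growth read once vehicle control cultures reached saturation at 30 °C; 1 = growth at the plate median or of vehicle wells; lower values mean less growth of the strain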
Conditions: S. cerevisiae deletion strains, growth OD, locus YNL020C, strain ARK1, active compounds read low
The campaign covered roughly 5,500 compounds. About 2,000 (36%) were called active. About 18% were inconclusive and are not listed. The list shows a part of the results.
Readout kind: normalized growth
# answer = number (no unit)

Some compounds with known normalized growth results, for comparison:
>  <Compound>
CC(=O)c1ccc(Sc2ccccc2)c([N+](=O)[O-])c1

>  <Readout kind>
normalized growth

>  <Value measured>
0.803

$$$$
>  <Compound>
CC(C)Sc1c(Cl)cccc1NC(=O)Nc1cccc(C(F)(F)F)c1

>  <Readout kind>
normalized growth

>  <Value measured>
0.926

$$$$
>  <Compound>
COc1cc(C2CC(=S)Nc3ccccc3S2)cc(OC)c1OC (stereo not given)

>  <Readout kind>
normalized growth

>  <Value measured>
0.961

$$$$

For this compound ( O=C(Nc1cc(Cl)cc(Cl)c1)c1cc(Br)ccc1O ), measured normalized growth is 0.738

For this compound ( O=C(Nc1ccc(F)cc1F)c1cc(Cl)ccc1O ), measured normalized growth is 0.84

----------
Assay: chemical genetic growth profiling, strain panel (AID 1159580);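 also: tested at 20 µM; growth read once vehicle control cultures reached saturation at 30 °C; 1 = growth at the plate median or of vehicle wells; lower values mean less growth of the strain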
Conditions: S. cerevisiae deletion strains, growth OD, locus YJR066W, strain TOR1, active compounds read low
Screen size: about 5,500 compounds; about 2,000 (36%) were called active. Another 18% or so got no clear call; they are omitted. The list shows a part of the results.
# normalized growth annotations
# answer = number (no unit)

Some molecules with known normalized growth results, for comparison:
>  <Molecule>
CC(C)Sc1c(Cl)cccc1NC(=O)Nc1cccc(C(F)(F)F)c1

>  <normalized growth>
0.912

$$$$
>  <Molecule>
CON

>  <normalized growth>
0.92

$$$$
>  <Molecule>
O=C(/C=C/c1ccc(O)cc1)c1ccc(O)cc1O

>  <normalized growth>
0.904

$$$$
>  <Molecule>
COC1=CC23CCCN2CCc2cc4c(cc2C3C1O)OCO4 (configuration not stated)

>  <normalized growth>
0.92

$$$$
>  <Molecule>
NC(Cc1ccc(Cl)cc1)C(=O)O (configuration not stated)

>  <normalized growth>
0.902

$$$$
>  <Molecule>
S=C(NCc1cccs1)Nc1cc(Cl)cc(Cl)c1

>  <normalized growth>
0.917

$$$$
>  <Molecule>
O=C(/C=C/c1ccccc1)c1ccc(O)cc1O

>  <normalized growth>
0.000815

$$$$
>  <Molecule>
NNC(=O)c1oc2nc(-c3ccccc3)cc(-c3ccccc3)c2c1N

>  <normalized growth>
0.983

$$$$
>  <Molecule>
S=C(NCCc1csc2ccccc12)Nc1ccc(Cl)cc1

>  <normalized growth>
0.727

$$$$
>  <Molecule>
COc1cc(C2CC(=S)Nc3ccccc3S2)cc(OC)c1OC (configuration not stated)

>  <normalized growth>
1.08

$$$$

For this molecule ( Cc1csc2c(N3CCN(C(=S)Nc4ccc(C(F)(F)F)cc4)CC3)ncnc12 ), measured normalized growth is 1.06

For this molecule ( NC(=NCCCCCCN=C(N)N=C(N)Nc1ccc(Cl)cc1)N=C(N)Nc1ccc(Cl)cc1 ), measured normalized growth is 0.00766

For this molecule ( O=C(/C=C/c1ccccc1)c1ccc(O[C@@H]2O[C@H](CO)[C@@H](O)[C@H](O)[C@H]2O)cc1O ), measured normalized growth is 0.857

For this molecule ( CC(C)Sc1c(Cl)cccc1NC(=O)Nc1ccccc1 ), measured normalized growth is 0.835

For this molecule ( O=C(O)CC[N+](=O)[O-] ), measured normalized growth is 0.935

For this molecule ( CC(C)[C@@H]1CC[C@@H](C)CC1=O ), measured normalized growth is 0.94

For this molecule ( O=C(/C=C/c1ccc(O)cc1)c1ccccc1O ), measured normalized growth is 0.0115

For this molecule ( O=Cc1ccccc1O[C@@H]1O[C@H](CO)[C@H](O)[C@@H](O)[C@H]1O ), measured normalized growth is 0.99

For this molecule ( CC(C)=CCC/C(C)=C/CO ), measured normalized growth is 0.994

----------
Experiment: chemical genetic growth profiling, strain panel (AID 1159580);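 also: tested at 20 µM; growth read once vehicle control cultures reached saturation at 30 °C; 1 = growth at the plate median or of vehicle wells; lower values mean less growth of the strain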
Settings: S. cerevisiae deletion strains, growth OD, locus YOR290C, strain snf2, active compounds read low
Among all 5,500 compounds or so, about 2,000 (36%) were called active. Inconclusive results (about 18%) are left out. The list shows a part of the results.
# normalized growth annotations
# answer = number (no unit)

>  <Compound>
CCCCCC/C=C\CCCCCCCc1cccc(O)c1C(=O)O

>  <normalized growth>
1

$$$$
>  <Compound>
CNC(=O)Oc1ccccc1OC(C)C

>  <normalized growth>
1

$$$$
>  <Compound>
CC[C@H]1OC(=O)[C@H](C)[C@@H](O[C@H]2C[C@@](C)(OC)[C@@H](O)[C@H](C)O2)[C@H](C)[C@@H](O[C@@H]2O[C@H](C)C[C@H](N(C)C)[C@H]2O)[C@](C)(O)C[C@@H](C)/C(=N/OCOCCOC)[C@H](C)[C@@H](O)[C@]1(C)O

>  <normalized growth>
1.01

$$$$

For this compound ( COc1cc(O)ccc1C(C)=O ), measured normalized growth is 1.01

For this compound ( CC1(C)CC23C(=O)CCC(O)C2(C)CCC13 (centres undefined) ), measured normalized growth is 0.977

For this compound ( CC(=CC1CCC(C)C2C1=C(C)CC2O)C(=O)O (centres undefined) ), measured normalized growth is 0.989

For this compound ( CO/N=C(/C(=O)NC1C(=O)N2C(C(=O)OCOC(=O)C(C)(C)C)=C(/C=C\c3scnc3C)CSC12)c1csc(N)n1 (centres undefined) ), measured normalized growth is 1.01

For this compound ( O=C(O)C1=C(CSc2nnnn2CS(=O)(=O)O)CS[C@@H]2C(NC(=O)[C@H](O)c3ccccc3)C(=O)N12 (some centres undefined) ), measured normalized growth is 0.979

For this compound ( CN1CCC[C@H]1c1cccnc1 ), measured normalized growth is 1.02

For this compound ( O=C(O)CC[N+](=O)[O-] ), measured normalized growth is 0.982
